# tested.on: UniProt P67775
# Sequence (P67775 whole entry): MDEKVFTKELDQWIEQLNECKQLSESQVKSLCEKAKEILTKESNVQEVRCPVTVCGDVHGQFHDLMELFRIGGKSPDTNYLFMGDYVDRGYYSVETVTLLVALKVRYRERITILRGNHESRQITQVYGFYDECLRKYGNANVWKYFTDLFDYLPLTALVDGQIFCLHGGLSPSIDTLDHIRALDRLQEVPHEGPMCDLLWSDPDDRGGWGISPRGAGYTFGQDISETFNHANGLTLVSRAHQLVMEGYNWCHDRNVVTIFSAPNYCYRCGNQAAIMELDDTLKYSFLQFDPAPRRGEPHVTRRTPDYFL
# protocol.notes: Inhibition of human recombinant non-tyrosine phosphatase PP2A (DiFMUP)
# Assay type: biochemical
# condition.details: 1 µM
Each record here notes measured Inhibition of PP2A, percentage inhibition of control ± SD.
Just so you know, I need the unit written after the number.

[[record]]
compound = "CC(CC(=S)Nc1ccccc1)=NC(Cc1ccccc1)C(=O)[O][V](=[O])([Cl])[Cl] (stereo not drawn) [VC059, [VOCl2(L2)]·0.5Et2O·1.5HCl]"
result = "44 ± 1%"

[[record]]
compound = "[O]=[V]1[O]C(c2ccc(Cl)cc2)=NN=Cc2cc(Br)ccc2[O]1.c1cnc2c(c1)ccc1cccnc12 [VC050, [VO(L11)(phen)]]"
result = "24 ± 3%"

[[record]]
compound = "O=S(=O)([O-])[O-].[O]=[V+2] [VOSO4, reference compound]"
result = "32 ± 2%"

[[record]]
compound = "Cc1occc(=O)c1[O-].Cc1occc(=O)c1[O-].[O]=[V+2] [BMOV, bis(maltolato)oxidovanadium(IV), reference compound]"
result = "52 ± 15%"

[[record]]
compound = "CC(CC(=S)Nc1ccccc1)=NC(Cc1c[nH]c2ccccc12)C(=O)[O][V](=[O])([Cl])[Cl] (stereo not drawn) [VC054, [VOCl2(L1)]·1.5Et2O ·6.5HCl]"
result = "41 ± 15%"


Measured Inhibition of PP2A, percentage inhibition of control ± SD, O=C(NN=Cc1cc(Br)ccc1[O-])c1ccc([N+](=O)[O-])cc1.O=[N+]([O-])c1ccc(C([O-])=NN=Cc2cc(Br)ccc2[O-])cc1.[V+3] [VC068, [V(L13)(HL13)]] : 26 ± 12%

###

# tested.on: CDC25A (Homo sapiens)
# Construct: purchased Sigma-Aldrich
# Sequence (P30304 whole entry): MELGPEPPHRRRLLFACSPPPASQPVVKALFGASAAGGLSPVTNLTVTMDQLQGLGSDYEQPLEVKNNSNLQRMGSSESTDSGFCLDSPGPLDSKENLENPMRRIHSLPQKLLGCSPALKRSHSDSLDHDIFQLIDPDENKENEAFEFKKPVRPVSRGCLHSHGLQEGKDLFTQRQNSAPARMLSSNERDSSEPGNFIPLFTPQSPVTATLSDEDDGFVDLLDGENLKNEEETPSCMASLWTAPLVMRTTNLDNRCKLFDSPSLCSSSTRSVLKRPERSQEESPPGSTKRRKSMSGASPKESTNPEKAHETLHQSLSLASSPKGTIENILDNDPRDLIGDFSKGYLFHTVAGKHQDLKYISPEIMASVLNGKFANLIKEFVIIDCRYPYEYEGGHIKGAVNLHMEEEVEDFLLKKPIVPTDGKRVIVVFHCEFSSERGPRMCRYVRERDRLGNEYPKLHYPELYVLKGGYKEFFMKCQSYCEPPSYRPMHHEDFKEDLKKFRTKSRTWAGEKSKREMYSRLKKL
# protocol.notes: Inhibition of human recombinant non-tyrosine phosphatase CDC25A (3-O-methylfluorescein phosphate)
# Format: biochemical
# condition.details: 10 µM
Each record here notes measured Inhibition of CDC25A, percentage inhibition of control ± SD.
Number in %, nothing else.

Measured Inhibition of CDC25A, percentage inhibition of control ± SD, O=S(=O)([O-])[O-].[O]=[V+2] [VOSO4, reference compound] : 62

Measured Inhibition of CDC25A, percentage inhibition of control ± SD, CC(CC(=S)Nc1ccccc1)=NC(Cc1ccccc1)C(=O)[O][V](=[O])([Cl])[Cl] (stereo not drawn) [VC059, [VOCl2(L2)]·0.5Et2O·1.5HCl] : 68

Measured Inhibition of CDC25A, percentage inhibition of control ± SD, CC(CC(=S)Nc1ccccc1)=NC(Cc1c[nH]c2ccccc12)C(=O)[O][V](=[O])([Cl])[Cl] (stereo not drawn) [VC054, [VOCl2(L1)]·1.5Et2O ·6.5HCl] : 65

Measured Inhibition of CDC25A, percentage inhibition of control ± SD, O=C(NN=Cc1cc(Br)ccc1[O-])c1ccc([N+](=O)[O-])cc1.O=[N+]([O-])c1ccc(C([O-])=NN=Cc2cc(Br)ccc2[O-])cc1.[V+3] [VC068, [V(L13)(HL13)]] : 62

Measured Inhibition of CDC25A, percentage inhibition of control ± SD, [O]=[V]1[O]C(c2ccc(Cl)cc2)=NN=Cc2cc(Br)ccc2[O]1.c1cnc2c(c1)ccc1cccnc12 [VC050, [VO(L11)(phen)]] : 38

Measured Inhibition of CDC25A, percentage inhibition of control ± SD, Cc1occc(=O)c1[O-].Cc1occc(=O)c1[O-].[O]=[V+2] [BMOV, bis(maltolato)oxidovanadium(IV), reference compound] : 61

###

# tested.on: SHP1 (Homo sapiens)
# Construct: purchased Sigma-Aldrich
# protocol.notes: Inhibition of human recombinant tyrosine phosphatase SHP1 (DiFMUP fluorescence)
# Type: biochemical
# condition.details: 1 µM; control solvent only; SD did not exceed 6%
Each record here notes measured Inhibition of SHP1, percentage of inhibition of the control.
Just so you know, I need the unit written after the number.

Past entries and their recorded results:
[[record]]
compound = "[O]=[V]1[O]C(c2ccc(Cl)cc2)=NN=Cc2cc(Br)ccc2[O]1.c1cnc2c(c1)ccc1cccnc12 [VC050, [VO(L11)(phen)]]"
result = "53%"

[[record]]
compound = "C1CCOC1.CSCCC1C(=O)[O][V](=[O])([Cl])([Cl])[N]1C(C)=CC(=S)Nc1ccccc1.Cl (stereo not drawn) [VC073, [VOCl2(L4)]·1.5THF·3HCl]"
result = "82%"


Measured Inhibition of SHP1, percentage of inhibition of the control, O=C(NN=Cc1cc(Br)ccc1[O-])c1ccc([N+](=O)[O-])cc1.O=[N+]([O-])c1ccc(C([O-])=NN=Cc2cc(Br)ccc2[O-])cc1.[V+3] [VC068, [V(L13)(HL13)]] : 70%

###

Each record here notes measured Inhibition of SHP1, percentage of inhibition of the control.
# tested.on: SHP1 (Homo sapiens)
# Construct: purchased Sigma-Aldrich
# protocol.notes: Inhibition of human recombinant tyrosine phosphatase SHP1 (DiFMUP fluorescence)
# Format: biochemical
# condition.details: 1 µM; control solvent only; SD did not exceed 6%
Number in %, nothing else.

[[record]]
compound = "COc1ccc(C(=O)NN=Cc2cc(Br)ccc2[O][V]2[O]C(c3ccc(OC)cc3)=NN=Cc3cc(Br)ccc3[O]2)cc1 [VC055, [V(L11)(HL11)]]"
quantitative_readout = 56

[[record]]
compound = "CC(CC(=S)Nc1ccccc1)=NC(CC(C)C)C(=O)[O][V](=[O])([Cl])[Cl] (stereo not drawn) [VC070, [VOCl2(L3)]·0.5Et2O·3HCl]"
quantitative_readout = 84


The reported Inhibition of SHP1, percentage of inhibition of the control value, SHP1 (Homo sapiens), for O=C(NN=Cc1cc(Br)ccc1[O][V]1[O]C(c2ccccc2O)=NN=Cc2cc(Br)ccc2[O]1)c1ccccc1O [VC029, [V(L7)(HL7)]] reads 62

###

Each record here notes measured Inhibition of SHP1, percentage of inhibition of the control.
# tested.on: SHP1 (Homo sapiens, UniProt P29350)
# Construct: purchased Sigma-Aldrich
# Sequence (P29350 whole entry): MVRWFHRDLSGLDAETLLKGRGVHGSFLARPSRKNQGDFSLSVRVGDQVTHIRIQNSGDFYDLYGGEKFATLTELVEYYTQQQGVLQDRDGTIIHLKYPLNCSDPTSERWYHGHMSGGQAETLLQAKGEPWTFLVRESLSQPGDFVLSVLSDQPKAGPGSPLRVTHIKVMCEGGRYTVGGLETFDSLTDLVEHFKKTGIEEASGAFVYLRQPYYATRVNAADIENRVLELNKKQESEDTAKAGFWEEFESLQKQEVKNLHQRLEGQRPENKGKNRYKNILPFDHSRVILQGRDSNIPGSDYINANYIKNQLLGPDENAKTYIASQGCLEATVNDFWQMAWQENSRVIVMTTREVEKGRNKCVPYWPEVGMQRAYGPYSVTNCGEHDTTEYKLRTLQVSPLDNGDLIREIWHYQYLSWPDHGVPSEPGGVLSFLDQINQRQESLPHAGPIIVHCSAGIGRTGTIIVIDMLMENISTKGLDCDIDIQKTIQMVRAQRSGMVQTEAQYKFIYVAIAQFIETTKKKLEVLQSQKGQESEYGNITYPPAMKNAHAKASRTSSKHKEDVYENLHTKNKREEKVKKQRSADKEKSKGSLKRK
# protocol.notes: Inhibition of human recombinant tyrosine phosphatase SHP1 (DiFMUP fluorescence)
# Assay type: biochemical
# condition.details: 1 µM; control solvent only; SD did not exceed 6%
Number in %, nothing else.

Past entries and their recorded results:
[[record]]
molecule = "CC(CC(=S)Nc1ccccc1)=NC(Cc1ccccc1)C(=O)[O][V](=[O])([Cl])[Cl] (stereo not drawn) [VC059, [VOCl2(L2)]·0.5Et2O·1.5HCl]"
tested_on = "SHP1 (Homo sapiens, UniProt P29350)"
quantitative_readout = 82

[[record]]
molecule = "CCC(C)C(N=C(C)CC(=S)Nc1ccccc1)C(=O)[O][V](=[O])([Cl])[Cl] (racemic) [VC109, [VOCl2(L5)]·3HCl]"
tested_on = "SHP1 (Homo sapiens, UniProt P29350)"
quantitative_readout = 80


Note: attention shifts to another entry.
Measured Inhibition of SHP1, percentage of inhibition of the control, O.[O]=[V]1[O]C(c2ccccc2O)=NN=Cc2cc(Br)ccc2[O]1.c1cnc2c(c1)ccc1cccnc12 [VC013, [VO(L6)(phen)]⋅H2O] : 67

Hello, the source for this data is paper PMC10892041, in case you need it.
